- target_entity: T1, human serum albumin (human, UniProt P02768 25-609)
- T1 construct: also called Human SA; HuSA
- assay: phage binding
No end group written: not given here.
reported_property: binding result

[[record]]
binder = "ASEICYFPGICWMVE (on phage) [HBC-H12]"
test_value = "binds"

[[record]]
binder = "QGLIGDICLPRWGCLWGDSV (on phage; also called RB-R8) [RB-B12]"
test_value = "binds"

[[record]]
binder = "ELCYFPGICWT (not fully specified (bridges); cysteine pairing not given here; also: phage-displayed, on phage) [HB-H13]"
test_value = "binds"

